Target: Recombinant TDO (Homo sapiens)
Construct: Recombinant TDO or IDO was diluted to 16 ng/uL and 50 uL loaded into wells of a 96-well plate
Test: TDO Inhibition Assay (recombinant enzyme, absorbance at 321 nm)
Assay type: biochemical
Conditions: 10 μM test compound; remaining enzyme activity; read-out: TDO Inhibition Assay Screening (Activity, %) 10 μM
MEASUREMENT TYPE: activity at 10 µM (%)
Your answer should be a plain number; it is taken to be in %.

For Clc1ccc(C(Cn2ccnc2)OCc2ccsc2Cl)c(Cl)c1 (stereo not drawn) , what is its reported activity at 10 µM? 28

For Clc1cccc(C(c2ccc3[nH]cnc3c2)n2ccnc2)c1 (stereo not drawn) , what is its reported activity at 10 µM? 43

For O=C(O)c1ccc(-n2nc(-c3ccccc3O)nc2-c2ccccc2O)cc1 , what is its reported activity at 10 µM? 69

For Clc1ccc(C(Cn2ccnc2)OCc2csc3c(Cl)cccc23)c(Cl)c1 (stereo not drawn) , what is its reported activity at 10 µM? 15

For CCC(C)n1ncn(-c2ccc(N3CCN(c4ccc(OCC5COC(Cn6cncn6)(c6ccc(Cl)cc6Cl)O5)cc4)CC3)cc2)c1=O (stereo not drawn) , what is its reported activity at 10 µM? 82

For Clc1ccc(COC(Cn2ccnc2)c2ccc(Cl)cc2Cl)cc1 (stereo not drawn) , what is its reported activity at 10 µM? 20

###

Kindly supply the reported pIC50 values for the records listed here.
Target: Recombinant IDO (Homo sapiens, UniProt P14902)
Construct: Recombinant TDO or IDO was diluted to 16 ng/uL and 50 uL loaded into wells of a 96-well plate
Sequence (P14902 whole entry): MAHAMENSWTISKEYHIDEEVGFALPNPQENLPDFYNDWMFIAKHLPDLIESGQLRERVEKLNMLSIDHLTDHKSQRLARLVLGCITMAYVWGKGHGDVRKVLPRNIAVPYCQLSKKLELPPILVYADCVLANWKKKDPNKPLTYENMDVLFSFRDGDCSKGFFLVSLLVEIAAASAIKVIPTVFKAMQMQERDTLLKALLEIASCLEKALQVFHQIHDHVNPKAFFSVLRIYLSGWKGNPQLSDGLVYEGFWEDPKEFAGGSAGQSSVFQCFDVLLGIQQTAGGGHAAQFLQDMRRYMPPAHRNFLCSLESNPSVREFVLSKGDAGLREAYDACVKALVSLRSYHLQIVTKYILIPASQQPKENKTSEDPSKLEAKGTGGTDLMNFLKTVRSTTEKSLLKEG
Experiment: IDO Inhibition Assay (recombinant enzyme, absorbance at 321 nm)
Type: biochemical
pIC50 is defined as minus the log10 of a concentration measured in mol/L.

For Clc1ccc(COC(Cn2ccnc2)c2ccc(Cl)cc2Cl)c(Cl)c1 (stereo not shown) [Miconazole] , what is its reported pIC50? 5.33

For Clc1ccc(COC(Cn2ccnc2)c2ccc(Cl)cc2Cl)cc1 (stereo not shown) [Econazole] , what is its reported pIC50? 5.31

For Clc1ccc(C(Cn2ccnc2)OCc2c(Cl)cccc2Cl)c(Cl)c1 (stereo not shown) [Isoconazole] , what is its reported pIC50? 4.84

For Clc1ccc(C(Cn2ccnc2)OCc2csc3c(Cl)cccc23)c(Cl)c1 (stereo not shown) [Sertaconazole] , what is its reported pIC50? 5.08

###

Target: Recombinant IDO (Homo sapiens, UniProt P14902)
Construct: Recombinant TDO or IDO was diluted to 16 ng/uL and 50 uL loaded into wells of a 96-well plate
Assay: IDO Inhibition Assay (recombinant enzyme, absorbance at 321 nm)
Type: biochemical
Details: 10 μM test compound; remaining enzyme activity; read-out: IDO Inhibition Assay Screening (Activity, %) 10 μM
Kindly supply the reported activity at 10 µM values for the records listed here.
Your answer should be a plain number; it is taken to be in %.

Test system Recombinant IDO (Homo sapiens, UniProt P14902); read-out activity at 10 µM; what value for O=C(O)c1ccc(-n2nc(-c3ccccc3O)nc2-c2ccccc2O)cc1 ? 85

Test system Recombinant IDO (Homo sapiens, UniProt P14902); read-out activity at 10 µM; what value for Clc1ccc(C(Cn2ccnc2)OCc2csc3c(Cl)cccc23)c(Cl)c1 (centres unmarked) ? 37

Test system Recombinant IDO (Homo sapiens, UniProt P14902); read-out activity at 10 µM; what value for Clc1ccc(C(Cn2ccnc2)OCc2ccsc2Cl)c(Cl)c1 (centres unmarked) ? 47

Test system Recombinant IDO (Homo sapiens, UniProt P14902); read-out activity at 10 µM; what value for Clc1ccc(COC(Cn2ccnc2)c2ccc(Cl)cc2Cl)cc1 (centres unmarked) ? 28

Test system Recombinant IDO (Homo sapiens, UniProt P14902); read-out activity at 10 µM; what value for Clc1cccc(C(c2ccc3[nH]cnc3c2)n2ccnc2)c1 (centres unmarked) ? 88

Test system Recombinant IDO (Homo sapiens, UniProt P14902); read-out activity at 10 µM; what value for CC1=NN(c2ccc(C)c(C)c2)C(=O)/C1=N\Nc1cccc(-c2cccc(C(=O)O)c2)c1O ? 83

Test system Recombinant IDO (Homo sapiens, UniProt P14902); read-out activity at 10 µM; what value for CCC(C)n1ncn(-c2ccc(N3CCN(c4ccc(OCC5COC(Cn6cncn6)(c6ccc(Cl)cc6Cl)O5)cc4)CC3)cc2)c1=O (centres unmarked) ? 56

Test system Recombinant IDO (Homo sapiens, UniProt P14902); read-out activity at 10 µM; what value for Clc1ccc(C(Cn2ccnc2)OCc2c(Cl)cccc2Cl)c(Cl)c1 (centres unmarked) ? 53

Test system Recombinant IDO (Homo sapiens, UniProt P14902); read-out activity at 10 µM; what value for O=C(Nc1ccc([N+](=O)[O-])cc1Cl)c1cc(Cl)ccc1O [Niclosamide] ? 75

Test system Recombinant IDO (Homo sapiens, UniProt P14902); read-out activity at 10 µM; what value for Clc1ccc(COC(Cn2ccnc2)c2ccc(Cl)cc2Cl)c(Cl)c1 (centres unmarked) ? 27

Test system Recombinant IDO (Homo sapiens, UniProt P14902); read-out activity at 10 µM; what value for Clc1ccc(C(Cn2ccnc2)OCc2ccc(Sc3ccccc3)cc2)c(Cl)c1 (centres unmarked) ? 56

###

Kindly supply the reported activity at 10 µM values for the records listed here.
Biological target: Recombinant TDO (Homo sapiens, UniProt P48775)
Construct: Recombinant TDO or IDO was diluted to 16 ng/uL and 50 uL loaded into wells of a 96-well plate
Sequence (P48775 whole entry): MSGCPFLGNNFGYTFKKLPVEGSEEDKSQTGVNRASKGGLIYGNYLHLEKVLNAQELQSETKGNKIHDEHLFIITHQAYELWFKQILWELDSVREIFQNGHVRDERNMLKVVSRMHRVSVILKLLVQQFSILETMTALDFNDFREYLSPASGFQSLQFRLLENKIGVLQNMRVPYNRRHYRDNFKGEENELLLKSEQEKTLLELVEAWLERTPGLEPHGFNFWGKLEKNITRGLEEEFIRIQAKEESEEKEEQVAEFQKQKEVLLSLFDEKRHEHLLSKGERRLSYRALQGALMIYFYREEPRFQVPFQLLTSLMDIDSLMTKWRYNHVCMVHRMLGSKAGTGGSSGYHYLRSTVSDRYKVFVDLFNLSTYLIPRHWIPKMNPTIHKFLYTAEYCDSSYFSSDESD
Test: TDO Inhibition Assay (recombinant enzyme, absorbance at 321 nm)
Assay type: biochemical
Conditions: 10 μM test compound; remaining enzyme activity; read-out: TDO Inhibition Assay Screening (Activity, %) 10 μM
Your answer should be a plain number; it is taken to be in %.

For Clc1ccc(COC(Cn2ccnc2)c2ccc(Cl)cc2Cl)c(Cl)c1 (centres unmarked) , what is its reported activity at 10 µM? 16

For CC1=NN(c2ccc(C)c(C)c2)C(=O)/C1=N\Nc1cccc(-c2cccc(C(=O)O)c2)c1O , what is its reported activity at 10 µM? 5

For Clc1ccc(C(Cn2ccnc2)OCc2c(Cl)cccc2Cl)c(Cl)c1 (centres unmarked) , what is its reported activity at 10 µM? 17

For O=C(Nc1ccc([N+](=O)[O-])cc1Cl)c1cc(Cl)ccc1O [Niclosamide] , what is its reported activity at 10 µM? 62

For Clc1ccc(C(Cn2ccnc2)OCc2ccc(Sc3ccccc3)cc2)c(Cl)c1 (centres unmarked) , what is its reported activity at 10 µM? -34
